- Tested on: soluble epoxide hydrolase (sEH)
- TEST_METHOD_NOTES: Fluorescent assay for mouse and human soluble epoxide hydrolase (CMNPC substrate)
- Format: biochemical
- EXPERIMENTAL_SETUP: compound concentration 2000 nM
ASSAY_METRIC: % Inhibition (%)

# STRUCTURE_NOTATION, UNITS_OF_MEASURE, % Inhibition
rows = [
    ("O=C(Nc1ccc(OC(F)(F)F)cc1)NC1CCN(C(=O)c2ccc(-c3ccccc3)nc2)CC1", "%", 100),
    ("CN1CCOc2cc(C(=O)N3CCC(NC(=O)Nc4ccc(OC(F)(F)F)cc4)CC3)cnc21", "%", 100),
    ("O=C(Nc1ccc(OC(F)(F)F)cc1)NC1CCN(C(=O)Cc2ccccn2)CC1", "%", 100),
    ("O=C(Nc1cccc(OC(F)(F)F)c1)NC1CCN(C(=O)c2cccnc2)CC1", "%", 99),
    ("COc1ccc(C(=O)N2CCC(NC(=O)Nc3ccc(OC(F)(F)F)cc3)CC2)cn1", "%", 99),
]

----------
ASSAY_METRIC: melting point

// known answers, use as guide
# STRUCTURE_NOTATION, melting point
measured = [
    ("O=C(Nc1ccc(OC(F)(F)F)cc1)NC1CCN(C(=O)c2ccc(-c3ccccc3)nc2)CC1", "230 to 232 °C"),
    ("O=C(Nc1ccc(OC(F)(F)F)cc1)NC1CCN(C(=O)c2cncc(F)c2)CC1", "156 to 157 °C"),
    ("O=C(Nc1ccc(OC(F)(F)F)cc1)NC1CCN(C(=O)c2ccc(Oc3ccccc3)nc2)CC1", "182 to 185 °C"),
    ("COc1ccc(C(=O)N2CCC(NC(=O)Nc3ccc(OC(F)(F)F)cc3)CC2)cn1", "200 to 202 °C"),
]

Enquiry: Return reported melting point. Input compound: O=C(Nc1ccc(OC(F)(F)F)cc1)NC1CCN(C(=O)c2ccc(N3CCOCC3)nc2)CC1
Return: 265 to 268 °C
